# ASSAY SYSTEM: hROMK (hKir1.1) (Homo sapiens (Human))
# Sequence (P48048 whole entry): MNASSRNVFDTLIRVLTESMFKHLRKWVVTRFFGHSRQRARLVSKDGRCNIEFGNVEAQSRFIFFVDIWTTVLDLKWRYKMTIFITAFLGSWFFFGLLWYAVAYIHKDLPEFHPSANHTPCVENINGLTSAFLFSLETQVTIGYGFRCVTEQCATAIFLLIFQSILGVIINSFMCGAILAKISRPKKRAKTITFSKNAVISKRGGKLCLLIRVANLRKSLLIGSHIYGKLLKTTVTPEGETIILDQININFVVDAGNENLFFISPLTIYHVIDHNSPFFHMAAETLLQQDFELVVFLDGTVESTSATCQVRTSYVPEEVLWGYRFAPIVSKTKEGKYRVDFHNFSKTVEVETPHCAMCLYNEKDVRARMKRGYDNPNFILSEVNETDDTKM
# ASSAY PROTOCOL: Thallium Flux Assay (ROMK channel functional thallium flux, FLIPR-Tetra)
# Assay type: cell-based
# CONDITION: HEK293 cells stably expressing hROMK (hKir1.1); unit not given in Table 4 (IC50 potencies less than 1 μM); read-out: ROMK TI IC50
Where a name gives a salt, the structure may show the parent alone.
PROPERTY LABEL: IC50 (µM)

MOLECULE	IC50 [µM]
Cc1c([C@@H](O)CN2CCC3(CC2)CCN(c2ccnc(-c4ccoc4)n2)C3=O)ccc2c1COC2=O	0.286
Cc1nc(N2CC3(CCN(C[C@H](O)c4ccc5c(c4C)COC5=O)CC3)CC2=O)ccc1-n1cnnn1 [Example 73, hydrochloride]	0.359
Cc1c([C@@H](O)CN2CCC3(CC2)CC(=O)N(c2ccc4c(c2)CCS4(=O)=O)C3)ccc2c1COC2=O [Example 66, hydrochloride]	0.101
Cc1c([C@@H](O)CN2CCC3(CCCN(c4ncc(-n5cnnn5)cn4)C3)CC2)ccc2c1COC2=O	0.037
COc1cc(N2CCC3(CCN(C[C@H](O)c4ccc5c(c4C)COC5=O)CC3)C2)ncc1C#N [Example 7]	0.0215

1. COc1ccc(C#N)cc1N1CCC2(CCN(C[C@H](O)c3ccc4c(c3C)COC4=O)CC2)C1
2. Cc1c([C@@H](O)CN2CCC3(CC2)CCN(c2ccc(C#N)nn2)CC3)ccc2c1COC2=O
// compare measured IC50 between 1 and 2 ; output the lower one Write down the label attached to your selection.
2

I. Cc1cc2c(cc1C(O)CN1CCC3(CC1)CCN(c1ccc(S(C)(=O)=O)cn1)C3)COC2=O (centres unmarked)
II. Cc1cc2c(cc1C(O)CN1CCC3(CC1)CC(=O)N(c1ccc(C#N)cn1)C3)COC2=O (centres unmarked)
Smaller IC50 value, I vs II ? Return value: the label identifying the chosen record.
II

I. Cc1c(C(O)CN2CCC3(CC2)CCN(c2cc(C#N)ncn2)CC3)ccc2c1COC2=O (centres unmarked)
II. Cc1c([C@@H](O)CN2CCC3(CC2)CCN(c2ccc(-n4ccnn4)cc2)C3)ccc2c1COC2=O
III. COc1cc(C(O)CN2CCC3(CC2)CCN(c2ccc(S(C)(=O)=O)cn2)C3)c(Cl)cc1C#N (centres unmarked)
Hey, can you sort those molecules up there by IC50, smallest first? Response format: the labels, sorted as the prompt asks.
I, II, III

* * *

# ASSAY SYSTEM: hROMK (hKir1.1) (Homo sapiens (Human))
# ASSAY PROTOCOL: Thallium Flux Assay (ROMK channel functional thallium flux, FLIPR-Tetra)
# Type: cell-based
# CONDITION: HEK293 cells stably expressing hROMK (hKir1.1); unit not given in Table 4 (IC50 potencies less than 1 μM); read-out: ROMK TI IC50
# Experimental: Cell Culture Conditions—HEK293 cells stably expressing hROMK (hKir1.1) were grown at 37° C. in a 10% CO2 humidified incubator in complete growth media: Dulbecco's Modified Eagle Medium supplemented with non-essential amino acids, Penicillin/Streptomycin/Glutamine, G418 and FBS. […] Data Calculation—The fluorescence intensity of wells containing 3 μM of a standard control ROMK inhibitor of the present invention was used to define the ROMK-sensitive component of thallium flux. […]
pIC50: −log10 of the molar value. Counter-ions that a name gives are not always drawn.
PROPERTY LABEL: pIC50

MOLECULE	pIC50
Cc1c([C@@H](O)CN2CCC3(CC2)CC(=O)N(c2ccc(S(C)(=O)=O)cc2)C3)ccc2c1COC2=O [Example 74, hydrochloride]	7.09

1. Cc1c([C@@H](O)CN2CCC3(CCCN(c4ccc(S(C)(=O)=O)cn4)C3)CC2)ccc2c1COC2=O
2. Cc1c([C@@H](O)CN2CCC3(CC2)CCN(c2cc(C#N)ccc2F)C3)ccc2c1COC2=O
3. Cc1c([C@@H](O)CN2CCC3(CC2)CCN(c2ccc(S(C)(=O)=O)nc2)CC3)ccc2c1COC2=O
hey, can you rank those molecules up there by pIC50? biggest number first please When ranking, write the labels in the order the request describes.
1, 2, 3

Taken from patent US9751881B2.
